- ASSAYED_SYSTEM: aurora A kinase (AURKA) (Homo sapiens)
- Construct: purchased BPS Bioscience (assay run externally by the vendor)
- Sequence (O14965 1-403): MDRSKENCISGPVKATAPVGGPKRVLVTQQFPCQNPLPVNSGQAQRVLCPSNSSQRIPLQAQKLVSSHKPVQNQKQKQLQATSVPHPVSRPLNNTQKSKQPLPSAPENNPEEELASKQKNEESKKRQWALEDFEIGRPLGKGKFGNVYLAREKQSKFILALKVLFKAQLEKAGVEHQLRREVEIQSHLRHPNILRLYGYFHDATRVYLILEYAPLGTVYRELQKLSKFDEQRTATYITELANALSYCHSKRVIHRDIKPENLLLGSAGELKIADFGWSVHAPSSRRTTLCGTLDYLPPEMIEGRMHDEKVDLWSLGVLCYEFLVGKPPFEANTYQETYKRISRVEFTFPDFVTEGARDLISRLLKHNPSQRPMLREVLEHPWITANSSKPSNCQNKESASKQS
- PROTOCOL_NOTES: ADP-Glo kinase assay, Aurora A
- Type: biochemical
- CONDITION_DETAILS: Log[nM] 0; Set1
VALUE_KIND: Aurora A % Activity Set1 (%)
The figure you give is taken to be in %; do not add the unit.

Guide cases for Aurora A % Activity Set1, answers given:
[[record]]
molecule = "COc1ccc(Nc2ncnc3[nH]ccc23)cc1 [Compound 6]"
value_kind = "Aurora A % Activity Set1"
u = "%"
quantitative_readout = 104

[[record]]
molecule = "Clc1ccccc1Nc1ncnc2[nH]ccc12 [Compound 14]"
value_kind = "Aurora A % Activity Set1"
u = "%"
quantitative_readout = 97


# next molecule below
# input Dear colleague, please send me the reported Aurora A % Activity Set1 for Clc1ccc(Nc2ncnc3[nH]ccc23)cc1Br [Compound 7] when you can.
# output 95

====

- ASSAYED_SYSTEM: EGFR (Homo sapiens)
- Sequence (P00533 25-1210): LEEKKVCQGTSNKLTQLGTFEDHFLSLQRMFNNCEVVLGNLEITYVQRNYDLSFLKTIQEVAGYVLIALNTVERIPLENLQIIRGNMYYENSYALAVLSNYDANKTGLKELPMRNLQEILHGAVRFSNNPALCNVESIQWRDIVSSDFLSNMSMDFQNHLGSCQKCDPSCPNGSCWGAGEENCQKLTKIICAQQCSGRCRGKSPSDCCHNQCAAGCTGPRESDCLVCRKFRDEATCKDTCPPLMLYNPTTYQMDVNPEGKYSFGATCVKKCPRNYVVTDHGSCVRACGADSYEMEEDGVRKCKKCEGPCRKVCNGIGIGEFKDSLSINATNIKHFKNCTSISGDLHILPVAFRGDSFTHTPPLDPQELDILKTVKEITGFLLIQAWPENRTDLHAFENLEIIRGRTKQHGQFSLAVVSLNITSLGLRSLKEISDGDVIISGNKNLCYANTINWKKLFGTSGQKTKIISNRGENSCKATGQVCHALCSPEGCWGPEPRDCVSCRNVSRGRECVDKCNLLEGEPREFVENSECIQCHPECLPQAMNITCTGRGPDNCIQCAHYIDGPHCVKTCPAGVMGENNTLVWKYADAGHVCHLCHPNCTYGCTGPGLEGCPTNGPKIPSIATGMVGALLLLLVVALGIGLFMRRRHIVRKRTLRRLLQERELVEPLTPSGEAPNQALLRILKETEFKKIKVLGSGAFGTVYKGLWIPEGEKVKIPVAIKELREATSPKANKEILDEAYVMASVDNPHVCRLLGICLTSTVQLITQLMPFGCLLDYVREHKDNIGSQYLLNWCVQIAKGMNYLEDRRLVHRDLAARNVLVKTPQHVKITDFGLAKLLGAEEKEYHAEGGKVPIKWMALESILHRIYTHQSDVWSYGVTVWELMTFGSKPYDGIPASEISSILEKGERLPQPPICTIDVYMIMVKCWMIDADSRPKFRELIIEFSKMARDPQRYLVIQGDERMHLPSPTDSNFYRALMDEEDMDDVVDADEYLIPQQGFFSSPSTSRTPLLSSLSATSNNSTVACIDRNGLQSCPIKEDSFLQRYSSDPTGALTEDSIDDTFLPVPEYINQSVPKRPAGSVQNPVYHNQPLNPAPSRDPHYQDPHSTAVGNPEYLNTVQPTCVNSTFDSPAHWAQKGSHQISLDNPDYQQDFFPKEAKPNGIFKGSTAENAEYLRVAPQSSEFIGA
- PROTOCOL_NOTES: ADP-Glo kinase assay, EGFR
- Assay type: biochemical
- Design: purchased BPS Bioscience (assay run externally by the vendor)
- CONDITION_DETAILS: Log[nM] 2.5; Set2
Values of EGFR % Activity Set2 strictly less than 20% map to Fulfilled, and values of at least 20% map to Not fulfilled.

Check out these entries, answers already filled in.
[[record]]
compound_smiles = "Cc1ccccc1Nc1ncnc2[nH]ccc12"
assayed_system = "EGFR (Homo sapiens)"
category_label = "Not fulfilled"

[[record]]
compound_smiles = "Clc1ccc(Nc2ncnc3[nH]ccc23)cc1"
assayed_system = "EGFR (Homo sapiens)"
category_label = "Fulfilled"

[[record]]
compound_smiles = "Clc1cccc(Nc2ncnc3[nH]ccc23)c1"
assayed_system = "EGFR (Homo sapiens)"
category_label = "Fulfilled"


# input Field: below-cutoff. Rule: recorded EGFR % Activity Set2 strictly less than 20%. Subject: "Brc1ccc(Nc2ncnc3[nH]ccc23)cc1"
# output Not fulfilled

# input Field: below-cutoff. Rule: recorded EGFR % Activity Set2 strictly less than 20%. Subject: "Clc1ccccc1Nc1ncnc2[nH]ccc12"
# output Not fulfilled

# input Field: below-cutoff. Rule: recorded EGFR % Activity Set2 strictly less than 20%. Subject: "c1ccc(Oc2ccc(Nc3ncnc4[nH]ccc34)cc2)cc1"
# output Not fulfilled

# input Field: below-cutoff. Rule: recorded EGFR % Activity Set2 strictly less than 20%. Subject: "c1ccc(Cc2ccc(Nc3ncnc4[nH]ccc34)cc2)cc1"
# output Fulfilled

# input Field: below-cutoff. Rule: recorded EGFR % Activity Set2 strictly less than 20%. Subject: "COc1ccc(Nc2ncnc3[nH]ccc23)cc1"
# output Not fulfilled

# input Field: below-cutoff. Rule: recorded EGFR % Activity Set2 strictly less than 20%. Subject: "Cc1ccc(Nc2ncnc3[nH]ccc23)cc1"
# output Not fulfilled

# input Field: below-cutoff. Rule: recorded EGFR % Activity Set2 strictly less than 20%. Subject: "Fc1cc(Nc2ncnc3[nH]ccc23)ccc1Cl"
# output Fulfilled

# input Field: below-cutoff. Rule: recorded EGFR % Activity Set2 strictly less than 20%. Subject: "Brc1cccc(Nc2ncnc3[nH]ccc23)c1"
# output Fulfilled

# input Field: below-cutoff. Rule: recorded EGFR % Activity Set2 strictly less than 20%. Subject: "Cc1cccc(Nc2ncnc3[nH]ccc23)c1"
# output Fulfilled

# input Field: below-cutoff. Rule: recorded EGFR % Activity Set2 strictly less than 20%. Subject: "c1ccc(Nc2ncnc3[nH]ccc23)cc1"
# output Not fulfilled

# input Field: below-cutoff. Rule: recorded EGFR % Activity Set2 strictly less than 20%. Subject: "Nc1nc(Nc2cccc(Br)c2)c2cc[nH]c2n1"
# output Not fulfilled
